test: NCI Yeast Anticancer Drug Screen. Data for the sgs1 mgt1 strain (AID 161);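 also: 0% = growth of cultures given vehicle only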; conditions: S. cerevisiae sgs1 mgt1 strain, at 50.0 µM, active compounds read high
About 79,000 compounds went through this panel and 15% of them were active in at least one assay; those are over-represented in the sample as a whole.
Quantity: growth inhibition (%)
Field: numeric (%). Do not append units.

Examples from the recorded data:
• c1ccc2c(c1)ccc1cc3c(ccc4ccccc43)cc12 = 7.9
• CCNC(=S)NCCc1c[nH]c2ccccc12 = -7.75
• COc1ccc(Cc2cc(OC)c(OC)c(OC)c2)cc1O = -16.4
• Cc1ccc(S(=O)(=O)CO)cc1 = 14.3
• COc1cc(C(=O)O)ccc1OS(=O)(=O)O = -10.7

Request: Requested read-out: growth inhibition. Entry: CC[n+]1[b-](C(C)(C)C)n(/N=C/C(C)(C)C)[b-](C(C)(C)C)[n+]1CC
Result: -19.9

Request: Requested read-out: growth inhibition. Entry: N#CC(C(=O)O)C(c1c(Cl)cccc1Cl)C(C#N)C(=O)O (configuration not stated)
Result: -0.7
